Target: His-NHR (Streptomyces actuosus, UniProt P52391 1-274)
Test: fluorescence anisotropy; 5 mM Mg2+; Anisotropy: 25 mM HEPES-KOH pH 7.5, 25 mM NH4Cl, 5 mM MgCl2, 5 mM DTT, 2.5 uM RNA, 0-8 uM NHR, temperature not stated; EMSA: 25 mM HEPES-KOH pH 8.0, 25 mM NH4Cl, 5 mM MgCl2, 5 mM DTT, 4 C, 1 h, 6-10 uM RNA
Conditions: protein: recombinant; tags: N-terminal His6 (pET-28a); chain copies: 2; label: 3' fluorescein; folded single strand
Collected pKd values appear next to each entry.
// field semantics: pKd = negative decimal log of concentration (mol/L)

The reported pKd of the binder 58 nt RNA A1067G (structured_RNA) RNA: GGCCAGGAUGUUGGCUUGGAAGCAGCCAUCAUUUAAAGAAAGCGUAAUAGCUCACUGGCU was 6.11

The reported pKd of the binder 58 nt RNA A1067C (structured_RNA) RNA: GGCCAGGAUGUUGGCUUCGAAGCAGCCAUCAUUUAAAGAAAGCGUAAUAGCUCACUGGCU was 6.10

The reported pKd of the binder 58 nt RNA A1067U (structured_RNA) RNA: GGCCAGGAUGUUGGCUUUGAAGCAGCCAUCAUUUAAAGAAAGCGUAAUAGCUCACUGGCU was 6.04
